Taken from the supplement of paper PMC12645437.

Target: T1, CRBN, Q96SW2;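 note: pooled lentiviral library of zinc finger degron-EGFP fusions in mCherry-positive Jurkat cells, FACS-sorted after compound exposure, with degron abundance counted by next-generation sequencing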
T1 chain: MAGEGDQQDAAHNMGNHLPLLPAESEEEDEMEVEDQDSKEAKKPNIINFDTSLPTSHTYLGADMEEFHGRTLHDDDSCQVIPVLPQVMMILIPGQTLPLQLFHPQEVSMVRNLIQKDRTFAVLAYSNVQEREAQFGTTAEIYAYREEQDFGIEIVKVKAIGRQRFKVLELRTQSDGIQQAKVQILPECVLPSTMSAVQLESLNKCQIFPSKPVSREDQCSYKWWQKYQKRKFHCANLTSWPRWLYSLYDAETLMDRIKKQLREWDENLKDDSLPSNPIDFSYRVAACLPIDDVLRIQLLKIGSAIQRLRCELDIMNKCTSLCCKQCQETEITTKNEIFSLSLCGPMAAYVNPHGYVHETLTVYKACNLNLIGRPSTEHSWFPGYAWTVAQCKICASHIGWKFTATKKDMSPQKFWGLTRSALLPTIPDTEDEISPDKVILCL
Experiment: log2 fold change of degron read counts, EGFP-low vs EGFP+ sorted cells (limma voom), compound-induced degradation; higher = more compound-induced degradation of the degron-EGFP fusion; degrons are variants of IKZF1/3 zinc finger 2; compound dose not given here
Settings: Jurkat; 18 h; compound: compound 19 (5-tert-butyl-thalidomide)
In all, about 8,300 sequences were measured (“log2 fold change of degron read counts, EGFP-low vs EGFP+ sorted cells (limma voom), compound-induced degradation”: median about -1.1, highest 2% from about 3.2 on). This is one part of a sample in which the highest values are shown more often than they occur.
property.name: log2 fold change of degron read counts

[
  {
    "sequence.entry": "FGCNQCGHWFTQKGNLLRHIKL [46F_47G_49N_50Q_52G_53H_54W_55F_67L_, Q9UKT9]",
    "measured": -0.98
  },
  {
    "sequence.entry": "FWCNQCGRQFTQKGNLLRHIKL [46F_47W_49N_50Q_52G_53R_54Q_55F_67L_, Q9UKT9]",
    "measured": -1.77
  },
  {
    "sequence.entry": "FSCNQCGRMFTQKGNLLRHIKL [46F_47S_49N_50Q_52G_53R_54M_55F_67L_, Q9UKT9]",
    "measured": -2.45
  },
  {
    "sequence.entry": "FRCDVCGAEFTQKGNLLRHIKL [46F_47R_49D_50V_52G_53A_54E_55F_67L_, Q9UKT9]",
    "measured": -2.43
  }
]
